Provenance of the data: the supplement of paper PMC10724198

The entries below come with measured protein stability index values attached.
tested on: Saccharomyces cerevisiae; test: protein stability index of tFT-peptide fusion (C-terminal peptide) (PSI (0-1 scale)); higher = more stable (slower turnover); details: genetic background: das1 deletion; temperature: 30 C
The answer should be a number; do not append a unit.

Observe how each entry below is paired with its result.
sequence.record: LVVFGLVLSLLL
protein stability index: 0.376
//
sequence.record: HLLMLAMVGFQC
protein stability index: 0.475
//
sequence.record: GLPRASPLPIPV
protein stability index: 0.447
//
sequence.record: VFSVTVVFVSVL
protein stability index: 0.192
//
sequence.record: LSFLFFRLCSFF
protein stability index: 0.568
//
sequence.record: VFMSVAPVSVLG
protein stability index: 0.198

Now for another entry.
Task: Param readout= protein stability index; system= Saccharomyces cerevisiae; entry= IVEVNCILMWIF ; returns value.
Result: 0.365

----------
tested on: Saccharomyces cerevisiae; experiment: protein stability index of tFT-peptide fusion in wild type (PSI (0-1 scale)); higher = more stable (slower turnover); conditions: genetic background: wild type
endpoint.name: protein stability index
The answer should be a number; do not append a unit.

Observe how each entry below is paired with its result.
sequence.record: AITLIMCPLLLR
protein stability index: 0.465
--
sequence.record: AIRLPMCPLLLR
protein stability index: 0.27
--
sequence.record: GLYMCSSGCWFR
protein stability index: 0.435

Task: Reported protein stability index, sequence PSLAASFWIVVG : ____
Result: 0.418

Task: Reported protein stability index, sequence ARWRYGLWRGAS : ____
Result: 0.489

----------
system: Saccharomyces cerevisiae; test: protein stability index of tFT-peptide fusion (C-terminal peptide) (PSI (0-1 scale)); higher = more stable (slower turnover); conditions: genetic background: wild type; temperature: 30 C
The entries below come with measured protein stability index values attached.
The answer should be a number; do not append a unit.

sequence.record: QLLNLLVKISQL [RFC2 C-terminal 12 aa]
protein stability index: 0.18

sequence.record: IHKENKEFYLIL [YGL118C C-terminal 12 aa]
protein stability index: 0.673

sequence.record: ALVGIFVLAFFN [HPF1 C-terminal 12 aa]
protein stability index: 0.251

sequence.record: MRLLGLTPVERM [YDR341C C-terminal 12 aa]
protein stability index: 0.696

sequence.record: IDDEDVVSLFAK [RBG2 C-terminal 12 aa]
protein stability index: 0.732

sequence.record: GCSLQISYARRD [GBP2 C-terminal 12 aa]
protein stability index: 0.653

sequence.record: LRIYKNPPLDGP [YJL163C C-terminal 12 aa]
protein stability index: 0.745

sequence.record: IQAMLKSLDSLK [SNL1 C-terminal 12 aa]
protein stability index: 0.66

sequence.record: KKDFNEDDSLFG [VPS55 C-terminal 12 aa]
protein stability index: 0.694

sequence.record: ASKESSKEDVAN [MUM2 C-terminal 12 aa]
protein stability index: 0.661

Task: Param readout= protein stability index; system= Saccharomyces cerevisiae; entry= DSSKYSLGNNSS [SUR1 C-terminal 12 aa] ; returns value.
Result: 0.686

Task: Param readout= protein stability index; system= Saccharomyces cerevisiae; entry= SLSSRGKIFSST [EFR3 C-terminal 12 aa] ; returns value.
Result: 0.657

----------
tested on: Saccharomyces cerevisiae; experiment: protein stability index of tFT-peptide fusion in wild type (PSI (0-1 scale)); higher = more stable (slower turnover); conditions: genetic background: wild type
The entries below come with measured protein stability index values attached.
The answer should be a number; do not append a unit.

Observe how each entry below is paired with its result.
sequence.record: AKHKKGQKQKIN
result: 0.11
--
sequence.record: GLVMCSVGCWFR
result: 0.19
--
sequence.record: GLYMCSGGCWFR
result: 0.47
--
sequence.record: GLYMCSVGNWFR
result: 0.611
--
sequence.record: KKHKKGQIQKIN
result: 0.109

Task: Reported protein stability index, sequence GLTMCSVGCWFR : ____
Result: 0.219

Task: Reported protein stability index, sequence RVNRLDAIYFRI : ____
Result: 0.48

Task: Reported protein stability index, sequence PSLAASFWRVVF : ____
Result: 0.699

Task: Reported protein stability index, sequence RLIQPLPVQFLNG : ____
Result: 0.626

Task: Reported protein stability index, sequence LKILRQKPNHQN : ____
Result: 0.68

Task: Reported protein stability index, sequence VKHKKGQKQKIN : ____
Result: 0.105

Task: Reported protein stability index, sequence RVRRLDAIYFRI : ____
Result: 0.385

Task: Reported protein stability index, sequence PSLANSFWRVVG : ____
Result: 0.269

----------
The entries below come with measured protein stability index values attached.
system: Saccharomyces cerevisiae; assay: protein stability index of tFT-peptide fusion (C-terminal peptide) (PSI (0-1 scale)); higher = more stable (slower turnover); settings: genetic background: wild type; temperature: 30 C
The answer should be a number; do not append a unit.

Observe how each entry below is paired with its result.
sequence.record: LYIRHPPSAPLP
result: 0.808
//
sequence.record: SKEERRKGSKKI
result: 0.686
//
sequence.record: VWPLAFFLRFFI
result: 0.288

Task: Param readout= protein stability index; system= Saccharomyces cerevisiae; entry= LSDFSLPTFLLL ; returns value.
Result: 0.72

Task: Param readout= protein stability index; system= Saccharomyces cerevisiae; entry= SGKFGACVDRGI ; returns value.
Result: 0.724

Task: Param readout= protein stability index; system= Saccharomyces cerevisiae; entry= MGGGGGLCGMWA ; returns value.
Result: 0.723

Task: Param readout= protein stability index; system= Saccharomyces cerevisiae; entry= AFPSSLVFFFYT ; returns value.
Result: 0.651

Task: Param readout= protein stability index; system= Saccharomyces cerevisiae; entry= ASARLRPDCPYL ; returns value.
Result: 0.645

Task: Param readout= protein stability index; system= Saccharomyces cerevisiae; entry= KPQQKQEKLTNP ; returns value.
Result: 0.736

Task: Param readout= protein stability index; system= Saccharomyces cerevisiae; entry= QGRRKEKAVTLN ; returns value.
Result: 0.3

Task: Param readout= protein stability index; system= Saccharomyces cerevisiae; entry= FLPPSVYAHPFP ; returns value.
Result: 0.743

Task: Param readout= protein stability index; system= Saccharomyces cerevisiae; entry= PFCGSPARTTAV ; returns value.
Result: 0.642

Task: Param readout= protein stability index; system= Saccharomyces cerevisiae; entry= FSFARFFSWSFS ; returns value.
Result: 0.694

----------
The entries below come with measured protein stability index values attached.
test system: Saccharomyces cerevisiae; assay: protein stability index of tFT-peptide fusion (C-terminal peptide) (PSI (0-1 scale)); higher = more stable (slower turnover); conditions: genetic background: wild type; temperature: 30 C

Observe how each entry below is paired with its result.
sequence.record: SNKGIKNIKKKT
protein stability index: 0.728
--
sequence.record: FRPCPLNSLSRY
protein stability index: 0.724
--
sequence.record: RREKGEARGRGG
protein stability index: 0.618
--
sequence.record: GLCRGHMSTMVD
protein stability index: 0.641

Task: Param readout= protein stability index; system= Saccharomyces cerevisiae; entry= GGRGRGMGGIFG ; returns value.
Result: 0.667

Task: Param readout= protein stability index; system= Saccharomyces cerevisiae; entry= AAPDLARPPLLR ; returns value.
Result: 0.685

Task: Param readout= protein stability index; system= Saccharomyces cerevisiae; entry= WRPLIPPSLPPL ; returns value.
Result: 0.698

Task: Param readout= protein stability index; system= Saccharomyces cerevisiae; entry= GRRWVGAVVEGV ; returns value.
Result: 0.684

----------
The entries below come with measured protein stability index values attached.
test system: Saccharomyces cerevisiae; test: protein stability index of tFT-peptide fusion (C-terminal peptide) (PSI (0-1 scale)); higher = more stable (slower turnover); conditions: genetic background: wild type; temperature: 30 C
The answer should be a number; do not append a unit.

Observe how each entry below is paired with its result.
sequence.record: GVFRYKLILRKM
result: 0.272
//
sequence.record: LLSAFPYLPVFA
result: 0.244
//
sequence.record: LQCVYFVFFICF
result: 0.251
//
sequence.record: ACEFRFFYVFRC
result: 0.176
//
sequence.record: LIAGTRRIPLFI
result: 0.261

Task: Reported protein stability index, sequence DDESLVGRWRKV : ____
Result: 0.313

Task: Reported protein stability index, sequence WIGCTVKIASLY : ____
Result: 0.261

Task: Reported protein stability index, sequence SILFSYFCFFLL : ____
Result: 0.273

----------
The entries below come with measured protein stability index values attached.
tested on: Saccharomyces cerevisiae; assay: protein stability index of tFT-peptide fusion (C-terminal peptide) (PSI (0-1 scale)); higher = more stable (slower turnover); conditions: genetic background: das1 deletion; temperature: 30 C
The answer should be a number; do not append a unit.

Observe how each entry below is paired with its result.
sequence.record: GVFRYKLILRKM
protein stability index: 0.586
--
sequence.record: LFIFYCFFFLVR
protein stability index: 0.318
--
sequence.record: LPFFSFSPWWFY
protein stability index: 0.736
--
sequence.record: VGPLAPVCLLVL
protein stability index: 0.36
--
sequence.record: IVVVVRLSPILG
protein stability index: 0.27
--
sequence.record: ILLHSFFSFYLL
protein stability index: 0.508
--
sequence.record: SLSALPRPPRLL
protein stability index: 0.673
--
sequence.record: VSSSFSVLVLLF
protein stability index: 0.375
--
sequence.record: SSGAVGLVIVVC
protein stability index: 0.214
--
sequence.record: TCGAKWIFSHIC
protein stability index: 0.646

Task: Reported protein stability index, sequence PPLPPVCPSPSL : ____
Result: 0.658

Task: Reported protein stability index, sequence VAALFPPLRFLN : ____
Result: 0.653

Task: Reported protein stability index, sequence VPASWLRMLAFC : ____
Result: 0.559

Task: Reported protein stability index, sequence VELRNCYLLVKA : ____
Result: 0.222

Task: Reported protein stability index, sequence PPSPVPPIWYLA : ____
Result: 0.707

Task: Reported protein stability index, sequence LVGYCGAWACVV : ____
Result: 0.558
